- Measurement target: T1, GIP receptor (human (printed as hGIPR), UniProt P48546 22-466)
- T1 sequence (looked up): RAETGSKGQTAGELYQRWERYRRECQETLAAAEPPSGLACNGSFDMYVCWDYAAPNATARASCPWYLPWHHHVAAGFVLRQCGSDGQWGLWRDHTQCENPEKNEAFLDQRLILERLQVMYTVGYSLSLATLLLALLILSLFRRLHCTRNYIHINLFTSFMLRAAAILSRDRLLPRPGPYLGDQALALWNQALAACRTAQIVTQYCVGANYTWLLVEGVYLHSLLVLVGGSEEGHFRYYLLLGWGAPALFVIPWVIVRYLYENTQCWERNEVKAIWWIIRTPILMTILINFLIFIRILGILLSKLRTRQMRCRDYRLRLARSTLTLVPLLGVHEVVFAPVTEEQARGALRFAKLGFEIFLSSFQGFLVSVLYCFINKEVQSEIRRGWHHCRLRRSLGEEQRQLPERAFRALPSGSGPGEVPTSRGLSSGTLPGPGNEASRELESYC
- Procedure details: cell-based or functional assay
Starred links: 1 amine or outer side, 2 acyl side, 3 side chain; linkers in the order of their positions; H or OH if unused. Non-standard residues stand in square brackets, D forms with d. Groups on a side chain read outwards from the residue. No end group written: not given here. *: point of attachment. C20 diacid = O=C(O)CCCCCCCCCCCCCCCCCCC(=O)*; C18 diacid = O=C(O)CCCCCCCCCCCCCCCCC(=O)*; γGlu = O=C(O)[C@H](CCC(=O)[*:2])N[*:1]; εLys = N[C@@H](CCCCN[*:1])C(=O)[*:2]; glu = not defined here; AEEA = NCCOCCOCC(=O)O; Aib = CC(C)(N)C(=O)O
Attribute measured: EC50 hGIPR 0.5% hP (CreLuc) (nM)

• YXEGTFTSDYSIXLEKQAQXAFVEWLIKGGPSSGASLLHYYNWLTRQRY (Aib at 2, 13, 20; K28 side chain carries C20DA-gGlu-gGlu-gGlu-gGlu-gGlu-gGlu-eLys; C-terminal amide) [Compound 210] = 0.28
• Y[Aib]EGTFTSDYSI[Aib]LEKQAQ[Aib]AFVEWLIK([AEEA-AEEA-γGlu-γGlu-γGlu-C18 diacid])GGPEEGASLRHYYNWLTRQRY-NH2 (also: TFA salt) [Compound 248] = 0.12
• Y[Aib]EGTFTSDYSI[Aib]LEKQAQ[Aib]AFVQWLIK([εLys-Glu-Glu-Glu-Glu-Glu-C20 diacid])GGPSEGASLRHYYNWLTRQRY-NH2 (also: TFA salt) [Compound 240] = 0.33
• YXEGTFTSDYSIXLEKQAQXAFVEWLIKGGPSEYVSLRHYYNWLTRQRY (Aib at 2, 13, 20; K28 side chain carries C20DA-gGlu-gGlu-gGlu-gGlu-gGlu-gGlu-eLys; C-terminal amide) [Compound 217] = 0.74
• YXEGTFTSDYSIXLEKQAQXEFVEWLIKGGPSSGASLRHYYNWLTRQRY (Aib at 2, 13, 20; K28 side chain carries C20DA-gGlu-gGlu-gGlu-gGlu-gGlu-gGlu-eLys; C-terminal amide) [Compound 215] = 0.5
• Y[Aib]EGTFTSDYSI[Aib]LEKQAQ[Aib]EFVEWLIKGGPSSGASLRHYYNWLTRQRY-NH2 (not fully specified (residue 28); also: TFA salt) [Compound 201] = 0.49
• Y[Aib]EGTFTSDYSI[Aib]LEKQAQ[Aib]AFVQWLIK([γGlu-γGlu-γGlu-γGlu-γGlu-γGlu-C20 diacid])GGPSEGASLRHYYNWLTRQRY-NH2 (also: TFA salt) [Compound 223] = 0.39
• Y[Aib]EGTFTSDYSI[Aib]LEKQAE[Aib]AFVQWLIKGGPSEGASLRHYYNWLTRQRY-NH2 (not fully specified (residue 28); also: TFA salt) [Compound 174] = 0.17
• Y[Aib]EGTFTSDYSI[Aib]LEK(Ac)QAQ[Aib]AFVEWLIK([εLys-glu-γGlu-γGlu-γGlu-γGlu-γGlu-C20 diacid])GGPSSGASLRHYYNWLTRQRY-NH2 (reading uncertain; also: TFA salt) [Compound 192] = 0.28

Numbers sourced from patent US20240247080A1.
